# Tested on: KRAS-mutant PDC complex spheroid viability
# assay_protocol: Anticancer human tumor 186277-243-T-J2-PDC patient-derived colon adenocarcinoma cell line growth inhibition [KRAS2]
# condition_notes: second compound 10 µM; first compound 0.0316 µM; stronger effect = lower value
I'd appreciate it if you could supply viability, T/C values for the items below.
Answers are plain numbers, in %.

COC(=O)c1ccc2c(C(=Nc3ccc(N(C)C(=O)CN4CCN(C)CC4)cc3)c3ccccc3)c(O)[nH]c2c1 + COc1cc2nc(C)nc(NC(C)c3cc(N)cc(C(F)(F)F)c3)c2cc1OC1CCOC1	74.5
CC(=O)OC12COC1CC(O)C1(C)C(=O)C(O)C3=C(C)C(OC(=O)C(O)C(NC(=O)OC(C)(C)C)c4ccccc4)CC(O)(C(OC(=O)c4ccccc4)C21)C3(C)C (stereo not given) + CNCc1ccccc1-c1csc(C(C)Nc2nc(C)nc3cc(OC)c(OC)cc23)c1	0.1
CCNC(=O)CC1N=C(c2ccc(Cl)cc2)c2cc(OC)ccc2-n2c(C)nnc21 (stereo not given) + CC1OCC2(CCN(c3cnc(Sc4ccnc(N)c4Cl)c(N)n3)CC2)C1N	64.2
CC(C)NCC(C(=O)N1CCN(c2ncnc3c2C(C)CC3O)CC1)c1ccc(Cl)cc1 (stereo not given) + CC1OCC2(CCN(c3cnc(Sc4ccnc(N)c4Cl)c(N)n3)CC2)C1N	65.1
CC1(C)CCC(CN2CCN(c3ccc(C(=O)NS(=O)(=O)c4ccc(NCC5CCOCC5)c([N+](=O)[O-])c4)c(Oc4cnc5[nH]ccc5c4)c3)CC2)=C(c2ccc(Cl)cc2)C1 + COc1cc2nc(C)nc(NC(C)c3cc(N)cc(C(F)(F)F)c3)c2cc1OC1CCOC1	77.3

// each molecule listed below needs its viability, T/C
1. CC(C)n1nc(-c2ccc3oc(N)nc3c2)c2c(N)ncnc21 + CNCc1ccccc1-c1csc(C(C)Nc2nc(C)nc3cc(OC)c(OC)cc23)c1
2. O=C(c1cc(Cc2n[nH]c(=O)c3ccccc23)ccc1F)N1CCN(C(=O)C2CC2)CC1 + C=CC(=O)N1CCN(c2nc(=O)n(-c3c(C)ccnc3C(C)C)c3nc(-c4c(O)cccc4F)c(F)cc23)C(C)C1

1: 0.1; 2: 78

// each molecule listed below needs its viability, T/C
1. CC(C)NCC(C(=O)N1CCN(c2ncnc3c2C(C)CC3O)CC1)c1ccc(Cl)cc1 (stereo not given) + CNCc1ccccc1-c1csc(C(C)Nc2nc(C)nc3cc(OC)c(OC)cc23)c1
2. CC1(C)CCC(CN2CCN(c3ccc(C(=O)NS(=O)(=O)c4ccc(NCC5CCOCC5)c([N+](=O)[O-])c4)c(Oc4cnc5[nH]ccc5c4)c3)CC2)=C(c2ccc(Cl)cc2)C1 + CNCc1ccccc1-c1csc(C(C)Nc2nc(C)nc3cc(OC)c(OC)cc23)c1
3. CC(C)n1nc(-c2ccc3oc(N)nc3c2)c2c(N)ncnc21 + CC1OCC2(CCN(c3cnc(Sc4ccnc(N)c4Cl)c(N)n3)CC2)C1N

1. 0.14
2. 0.17
3. 13.8

* * *

I'd appreciate it if you could supply IC50 values for the items below.
# System: KRAS-mutant PDC complex spheroid viability
# assay_protocol: Anticancer human tumor 186277-243-T-J2-PDC cell line growth inhibition [KRAS2]
# condition_notes: curve of first compound; second compound 10 µM
# Source text: Multicellular complex tumor spheroid response to RAS pathway inhibitors in combination with a targeted agents in patient-derived cell lines with oncogenic KRAS variants from multiple cancer types A high-throughput screen of multi-cell type tumor spheroids was designed to identify active combinations of targeted small molecules and KRAS pathway inhibitors. […] Compounds. […] If the clinical Cmax for an agent had not been determined, the highest concentration tested was 10 microM. […]
Answers are plain numbers, in µM.

Reference set (2 entries):
CC1(C)CCC(CN2CCN(c3ccc(C(=O)NS(=O)(=O)c4ccc(NCC5CCOCC5)c([N+](=O)[O-])c4)c(Oc4cnc5[nH]ccc5c4)c3)CC2)=C(c2ccc(Cl)cc2)C1 + CC1OCC2(CCN(c3cnc(Sc4ccnc(N)c4Cl)c(N)n3)CC2)C1N	1.55
Cn1ncnc1[C@H]1c2n[nH]c(=O)c3cc(F)cc(c23)N[C@@H]1c1ccc(F)cc1 + COc1cc2nc(C)nc(NC(C)c3cc(N)cc(C(F)(F)F)c3)c2cc1OC1CCOC1	0.00992

Per the record, CCN1CCN(Cc2ccc(Nc3ncc(F)c(-c4cc(F)c5nc(C)n(C(C)C)c5c4)n3)nc2)CC1 + COc1cc2nc(C)nc(NC(C)c3cc(N)cc(C(F)(F)F)c3)c2cc1OC1CCOC1 has IC50 of 0.064
